Reference source: patent US9428508B2

Measured IC50 on PYK2 (Homo sapiens (Human), UniProt Q14289) follows.
Sequence (Q14289 whole entry): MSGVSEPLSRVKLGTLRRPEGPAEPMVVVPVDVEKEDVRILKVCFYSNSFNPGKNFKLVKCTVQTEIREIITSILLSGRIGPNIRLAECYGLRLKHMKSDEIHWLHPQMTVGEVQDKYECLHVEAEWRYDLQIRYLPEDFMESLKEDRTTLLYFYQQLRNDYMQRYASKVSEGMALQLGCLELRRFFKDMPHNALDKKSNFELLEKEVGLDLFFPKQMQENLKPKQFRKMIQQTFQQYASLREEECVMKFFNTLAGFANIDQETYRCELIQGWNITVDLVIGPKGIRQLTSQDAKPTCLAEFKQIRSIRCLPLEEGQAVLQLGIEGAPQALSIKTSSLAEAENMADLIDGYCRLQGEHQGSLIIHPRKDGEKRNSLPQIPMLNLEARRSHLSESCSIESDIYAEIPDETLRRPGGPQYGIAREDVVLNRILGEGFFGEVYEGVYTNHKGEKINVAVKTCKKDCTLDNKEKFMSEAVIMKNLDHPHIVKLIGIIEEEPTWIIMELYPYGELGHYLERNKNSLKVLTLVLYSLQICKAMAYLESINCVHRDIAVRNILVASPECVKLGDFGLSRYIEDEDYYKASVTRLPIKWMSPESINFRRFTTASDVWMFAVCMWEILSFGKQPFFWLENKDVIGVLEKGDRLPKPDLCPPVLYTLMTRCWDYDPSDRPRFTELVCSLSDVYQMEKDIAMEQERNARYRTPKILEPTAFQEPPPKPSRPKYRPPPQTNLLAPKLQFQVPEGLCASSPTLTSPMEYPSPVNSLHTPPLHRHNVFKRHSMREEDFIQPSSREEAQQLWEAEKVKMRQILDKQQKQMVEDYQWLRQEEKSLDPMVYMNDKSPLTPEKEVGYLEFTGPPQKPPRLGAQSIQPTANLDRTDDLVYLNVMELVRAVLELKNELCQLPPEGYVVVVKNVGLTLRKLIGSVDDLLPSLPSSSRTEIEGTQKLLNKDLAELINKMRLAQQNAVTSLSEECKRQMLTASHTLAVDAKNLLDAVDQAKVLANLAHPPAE

Exercise: Give IC50 for `COc1cc(N2CCOCC2)ccc1Nc1nc2c(c(Nc3ccccc3S(=O)(=O)NC(C)(C)C)n1)C(C)(C)CN2` tested on PYK2 (Homo sapiens (Human), UniProt Q14289).
Key: < 20 nM

Exercise: Give IC50 for `CNS(=O)(=O)c1ccccc1Nc1nc(Nc2ccc(N3CCOCC3)cc2OC)nc2c1C(C)(C)CN2` tested on PYK2 (Homo sapiens (Human), UniProt Q14289).
Key: < 20 nM

Exercise: Give IC50 for `COc1cc(N2CCOCC2)ccc1Nc1nc2c(c(Nc3ccccc3S(=O)(=O)NC(C)C)n1)C(C)(C)CN2` tested on PYK2 (Homo sapiens (Human), UniProt Q14289).
Key: < 20 nM

Exercise: Give IC50 for `CC(C)NS(=O)(=O)c1ccccc1Nc1nc(Nc2ccc(C(=O)N3CCCC3)cc2)nc2c1CCN2` tested on PYK2 (Homo sapiens (Human), UniProt Q14289).
Key: < 20 nM

New cases:
Exercise: Give IC50 for `COc1cc(N2CCOCC2)ccc1Nc1nc2c(c(Nc3ccccc3S(=O)(=O)NCC(C)C)n1)C1(CC1)CN2` tested on PYK2 (Homo sapiens (Human), UniProt Q14289).
Key: < 20 nM

Exercise: Give IC50 for `Cc1cc(N2CCOCC2)ccc1Nc1nc2c(c(Nc3ccccc3S(=O)(=O)NC(C)C)n1)CCN2` tested on PYK2 (Homo sapiens (Human), UniProt Q14289).
Key: < 50 nM

Exercise: Give IC50 for `COc1cc(N2CCOCC2)ccc1Nc1nc2c(c(Nc3cccc(C)n3)n1)CCN2` tested on PYK2 (Homo sapiens (Human), UniProt Q14289).
Key: < 100 nM

###

Measured pIC50 on PYK2 (Homo sapiens (Human)) follows.
pIC50: −log10 of the molar value.

// solved cases for pIC50 follow
Exercise: Give pIC50 for `CNC(=O)c1ccccc1Nc1nc(Nc2ccc3c(ccn3CCCN3CCOCC3)c2)nc2c1C(C)(C)CN2` tested on PYK2 (Homo sapiens (Human)).
Key: > 6.70

Exercise: Give pIC50 for COc1cc(N2CCOCC2)ccc1Nc1nc2c(c(NC3CCCCC3N(C)S(C)(=O)=O)n1)C(C)(C)CN2 (centres unmarked) tested on PYK2 (Homo sapiens (Human)).
Key: > 7.00

Exercise: Give pIC50 for COc1cc(N2CCOCC2)ccc1Nc1nc2c(c(Nc3ccccc3S(=O)(=O)NC(C)C)n1)C(C)CN2 (centres unmarked) tested on PYK2 (Homo sapiens (Human)).
Key: > 7.70

Exercise: Give pIC50 for `COc1cc(-n2ccnc2)ccc1Nc1nc2c(c(Nc3ccccc3S(=O)(=O)NC(C)C)n1)CCN2` tested on PYK2 (Homo sapiens (Human)).
Key: > 6.30

Exercise: Give pIC50 for `CC(=O)Nc1cccc(Nc2nc3c(c(Nc4ccccc4S(=O)(=O)NC(C)C)n2)CCN3)c1` tested on PYK2 (Homo sapiens (Human)).
Key: > 7.70

New cases:
Exercise: Give pIC50 for CC(C)NS(=O)(=O)c1ccccc1Nc1nc(Nc2ccc(C(C)O)cc2)nc2c1CCN2 (centres unmarked) tested on PYK2 (Homo sapiens (Human)).
Key: > 7.70

Exercise: Give pIC50 for `CNC(=O)c1ccccc1Nc1nc(Nc2ccccc2OC)nc2c1CCN2` tested on PYK2 (Homo sapiens (Human)).
Key: > 6.70

Exercise: Give pIC50 for `CNC(=O)c1ccccc1Nc1nc(Nc2cccc3c2OCCO3)nc2c1C(C)(C)CN2` tested on PYK2 (Homo sapiens (Human)).
Key: > 7.70
